# experimental details: Ratio AUClast in Sprague-Dawley rat brain to plasma at 10 mg/kg, po measured up to 24 hrs by LC/MS-MS analysis
# Assay type: ADME, organism-based
# setup conditions: brain and plasma
outcome measure: Kp at 24 h
Lab note: write the figure by itself, no unit.

Which Kp at 24 h is listed for O=C1OC(CCCN2CCN(Cc3ccc(C(F)(F)F)cc3)CC2)c2ccccc21 (racemic) ?
0.85

---

# experimental details: MRTinf in Sprague-Dawley rat at 10 mg/kg, po measured up to 24 hrs by LC/MS-MS analysis
# Format: ADME, organism-based
# setup conditions: in vivo
outcome measure: MRT inf (h)
Number only, in h; omit the unit.

Which MRT inf is listed for O=C1OC(CCCN2CCN(Cc3ccc(C(F)(F)F)cc3)CC2)c2ccccc21 (racemic) ?
3.25

---

# target: Ionotropic glutamate receptor NMDA 1/2C (Homo sapiens) (UniProt Q05586+Q14957)
# experimental details: Antagonist activity at GluN1/GluN2C NMDA receptor (unknown origin) transfected in HEK293 cells assessed as inhibition of glycine induced current response at 10 uM in presence of L-glutamate by patch-clamp method
# Type: cell-based
Please go through the items and note down their inhibition.
Number only, in %; omit the unit.

Which inhibition is listed for CC(C(O)c1ccc(O)cc1)N1CCC(Cc2ccccc2)CC1 (centres undefined) [IFENPRODIL] ?
28.8

Which inhibition is listed for O=C1OC(CCCN2CCN(Cc3ccc(C(F)(F)F)cc3)CC2)c2ccccc21 (single isomer, unassigned; enantiomer A) ?
14.9

Which inhibition is listed for O=C1OC(CCCN2CCN(Cc3ccc(C(F)(F)F)cc3)CC2)c2ccccc21 (racemic) ?
12

Which inhibition is listed for O=C1OC(CCCN2CCN(Cc3ccc(C(F)(F)F)cc3)CC2)c2ccccc21 (single isomer, unassigned; enantiomer B) ?
16.2

---

# experimental details: AUClast in Sprague-Dawley rat at 2.5 mg/kg, iv measured up to 24 hrs by LC/MS-MS analysis
# Assay type: ADME, organism-based
# Design: dose 2.5 mg/kg, time < 24 hrs, route iv
# setup conditions: in vivo
outcome measure: AUC(0-t) at 24 h (ng·h/mL)
Number only, in ng·h/mL; omit the unit.

Which AUC(0-t) at 24 h is listed for O=C1OC(CCCN2CCN(Cc3ccc(C(F)(F)F)cc3)CC2)c2ccccc21 (racemic) ?
1450

---

Please go through the items and note down their Activity.
# experimental details: Neuroprotective activity against NMDA-induced neurotoxicity in Sprague-Dawley rat hippocampal neurons assessed as increase in cell viability at 10 uM incubated for 18 hrs followed by NMDA addition and measured after 0.5 hrs by MTT assay
# Assay type: functional, Hippocampal neurone
# setup conditions: time 18.5 hrs
Number only, in %; omit the unit.

Which Activity is listed for N#Cc1ccc(CN2CCN(CCCC3OC(=O)c4ccccc43)CC2)cc1 (configuration not stated) ?
60.33

Which Activity is listed for O=C1OC(CCCN2CCN(Cc3ccc4ccccc4n3)CC2)c2ccccc21 (configuration not stated) ?
62.96

Which Activity is listed for O=C1OC(CCCN2CCC(O)CC2)c2ccccc21 (configuration not stated) ?
77.13

Which Activity is listed for O=C1OC(CCCN2CCN(Cc3ccc(Cl)cc3)CC2)c2ccccc21 (configuration not stated) ?
60.33

Which Activity is listed for CN(C)CCC1OC(=O)c2ccccc21 (configuration not stated) ?
73.56

Which Activity is listed for O=C1OC(CCCN2CCN(Cc3ccc([N+](=O)[O-])cc3)CC2)c2ccccc21 (configuration not stated) ?
88.35

Which Activity is listed for Cc1cccc(CN2CCN(CCCC3OC(=O)c4ccccc43)CC2)c1 (configuration not stated) ?
67.43
